assayed_target: recombinant human MMP-1 (Homo sapiens)
Sequence (P03956 100-469): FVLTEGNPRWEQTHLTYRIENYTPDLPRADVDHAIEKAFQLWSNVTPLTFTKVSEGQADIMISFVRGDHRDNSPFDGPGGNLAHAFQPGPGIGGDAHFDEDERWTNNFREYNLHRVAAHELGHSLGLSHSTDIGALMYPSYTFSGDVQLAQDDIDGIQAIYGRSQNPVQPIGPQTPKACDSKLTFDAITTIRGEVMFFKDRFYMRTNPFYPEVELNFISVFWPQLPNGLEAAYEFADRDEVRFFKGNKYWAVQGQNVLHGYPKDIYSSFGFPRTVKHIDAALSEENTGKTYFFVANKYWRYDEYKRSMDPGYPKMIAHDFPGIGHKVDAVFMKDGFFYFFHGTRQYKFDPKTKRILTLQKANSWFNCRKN
protocol_description: In vitro metalloprotease inhibition, fluorogenic peptide assay (MMP-1)
setup_conditions: recombinant human MMP-1, APMA activated; fluorogenic MCA peptide substrate 4 uM; pH 7.5, room temperature
quantity_kind: IC50 (µM)

a = NC(=O)[C@H](CS)NS(=O)(=O)c1ccc(I)cc1 [Example 95, N-(4-Iodophenyl)sulfonyl-L-cysteine-NH2]
b = COc1ccc(S(=O)(=O)N(Cc2ccsc2)[C@H](C)CS)cc1 [Example 112]
(Q) Which of these two has the smaller recorded IC50: a or b ? Lab log: write the label of the selected item as the result.
(A) a
(a: 0.8 µM, b: 4 µM)

Taken from patent US6747027B1.
